- assay_overview: CCTE_Deisenroth_5AR_NBTE_acceptor: CCTE's 5alpha-reductase NanoBRET Target Engagement Assay - Autofluorescence Screen, Deisenroth Lab (AID 2284321);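 further: compound fluorescence in the acceptor channel under 460 nm excitation flags autofluorescence artifacts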
- condition_summary: actives raise or lower the signal
Active and inactive are the calls of the source. How the source made its calls: active means hit-call score of the fitted dose curve at least 0.9, where 1 is the maximum; inactive means score below 0.9.
Outcome field: choose from Yes = active, No = inactive

Ask | For this compound, state the assay outcome: `CC(C)=CCC[C@](C)(O)[C@@H]1CC=C(C)CC1`
Reply | No

Ask | Answer briefly: the call reported for CC1CC(OC(=O)c2ccccc2O)CC(C)(C)C1 (centres undefined) in this assay.
Reply | No

Ask | Recorded test outcome, item `CCN(CC)c1ccc(C(=C2C=CC(=[N+](CC)CC)C=C2)c2ccc(S(=O)(=O)O)cc2S(=O)(=O)[O-])cc1`
Reply | Yes

Ask | Lab log entry: `O=Nc1ccc(Nc2ccccc2)cc1` — outcome as called in the assay?
Reply | Yes

---

- assay_overview: ATG_VDRE_CIS: Attagene CIS-FACTORIAL HepG2 Assay for human Vitamin D Receptor Element (VDRE) (AID 2282968)
- condition_summary: HepG2 VDRE cis-reporter transcription, actives raise or lower the signal
The source made the active and inactive calls. The calls were made as follows: active = hit-call score of the fitted dose curve at least 0.9, where 1 is the maximum; inactive = score below 0.9.
The categories you may choose from are yes (1) = active, no (0) = inactive

Ask | Per the assay record, what outcome was assigned to `C[C@]12CC[C@H]3[C@@H](CCC4=CC(=O)CC[C@@]43C)[C@@H]1CC[C@@H]2C(=O)CO` ?
Reply | yes (1)

Ask | Could you check what this test reported for `CC[C@]12CCCN3CCc4c(n(c5ccccc45)[C@@](O)(C(=O)OC)C1)[C@@H]32` ?
Reply | no (0)

Ask | For `CSc1nnc(C(C)(C)C)c(=O)[nH]1` , what call appears in the results of this test?
Reply | no (0)

Ask | For CC(O)C(C)O (stereo not given) , which call appears in the assay record?
Reply | no (0)

Ask | Could you please tell me the result logged for `C[Si](O[Si](C)(C)C)O[Si](C)(C)C` in this assay?
Reply | no (0)

Ask | Each compound tested received a call. Report the one for `CCOC(=S)SSC(=S)OCC` .
Reply | no (0)

Ask | Lab log entry: `C=CC(C)(C)O` — outcome as called in the assay?
Reply | no (0)

Ask | Can you look up the reported call for `NCCCCCCN` for me?
Reply | no (0)

Ask | Give the logged outcome of this assay for the following compound: `CC(=O)C(=O)O`
Reply | no (0)

Ask | Recorded test outcome, item `O=C1CCCCCCCCCCOCCCCO1`
Reply | no (0)

Ask | Please let me know the test result on file for C=CC(C)(CCC=C(C)C)OC=O (stereo not given) .
Reply | no (0)

Ask | Lab log entry: `C=C(C)C(=O)O` — outcome as called in the assay?
Reply | no (0)

Ask | Check the results log: what was the call for FC1(F)C(F)(F)C(F)(F)C2(F)C(F)(C1(F)F)C(F)(F)C(F)(F)C1(F)C(F)(F)C(F)(F)C(F)(F)C(F)(F)C12F (stereo not given) ?
Reply | no (0)

Ask | Lab log entry: CC(C)C1CCC(O)CC1 (stereo not given) — outcome as called in the assay?
Reply | no (0)

Ask | What did this assay record as the result for `O=C(Oc1ccccc1)c1ccc(O)cc1` ?
Reply | yes (1)

Ask | // return assay outcome for `Nc1cccc(S(=O)(=O)c2cccc(N)c2)c1`
Reply | no (0)

Ask | Give the logged outcome of this assay for the following compound: c1cc(C(c2ccc(OCC3CO3)cc2)c2ccc(OCC3CO3)cc2)ccc1OCC1CO1 (stereo not given)
Reply | yes (1)

Ask | I would be grateful if you could indicate the recorded call for `NC(=O)c1ccccc1Cl` .
Reply | yes (1)

Ask | Recorded call for `O=S(=O)(O)c1ccc(O)c2ncccc12` ?
Reply | no (0)

Ask | Could you kindly confirm the outcome this assay logged for CN1[C@@H]2CC(OC(=O)[C@H](CO)c3ccccc3)C[C@H]1[C@@H]1O[C@@H]12 (stereo not given in full) ?
Reply | no (0)

Ask | Field: outcome | Entry: `C=C(C)C(=O)Nc1ccc(Cl)c(Cl)c1`
Reply | yes (1)

Ask | Returns: the outcome recorded for `N#Cc1ccccc1` in this assay.
Reply | no (0)

Ask | // param item: CC1COc2ccccc2N1C(=O)C(Cl)Cl (stereo not given) ; yields the recorded call
Reply | yes (1)

Ask | Hello, I am checking results. What call was entered for `CC(=O)OCC=Cc1ccccc1` ?
Reply | no (0)

Ask | Each compound tested received a call. Report the one for `O=C1c2ccccc2C(=O)N1SC1CCCCC1` .
Reply | no (0)

Ask | Which result was noted for this compound in the test: `CCCCCCOC(=O)CCCCC`
Reply | no (0)

Ask | Can you look up the reported call for CCC(=O)OCCC(C)CCC=C(C)C (stereo not given) for me?
Reply | no (0)

Ask | How was `CC(C)(N)CO` classified in this test?
Reply | no (0)

Ask | Would you mind telling me which call this test gave `O=c1oc(=O)c2cc3c(=O)oc(=O)c3cc12` ?
Reply | no (0)

Ask | Name the outcome recorded for `CCCCCCCCCCCCCOS(=O)(=O)O` in the assay.
Reply | no (0)

Ask | Tell me the recorded outcome of this test for `CCOC(=O)c1ccccc1OC` .
Reply | no (0)

Ask | Lab log entry: CCCC1CCC(=O)O1 (stereo not given) — outcome as called in the assay?
Reply | no (0)

Ask | Field: outcome | Entry: `c1ccc2c(c1)c1cccc3ccc4cccc2c4c31`
Reply | no (0)

Ask | Entry `COc1nc(C)nc(N)n1` : call = ?
Reply | no (0)

Ask | Which result was noted for this compound in the test: `Cc1ccc2n[nH]nc2c1`
Reply | no (0)

Ask | Tell me the assay call for `CC(C)C[C@H]1C(=O)N2CCC[C@H]2[C@]2(O)O[C@](NC(=O)[C@@H]3C=C4c5cccc6[nH]c(Br)c(c56)C[C@H]4N(C)C3)(C(C)C)C(=O)N12` please.
Reply | yes (1)

Ask | Each compound tested received a call. Report the one for `Cc1ccc(Nc2ccc(O)c3c2C(=O)c2ccccc2C3=O)cc1` .
Reply | no (0)

Ask | How did this test come out for `CCCCC/C=C/C=C/C=O` ?
Reply | no (0)

Ask | For this compound, state the assay outcome: `C=C(C)C(=O)NCCCN(C)C`
Reply | no (0)

Ask | Could you check what this test reported for `CCCCCC(=O)OCCc1ccccc1` ?
Reply | no (0)

Ask | Which outcome was entered for the compound `O=S(=O)(O)c1cccc2c(S(=O)(=O)O)cccc12` in this test?
Reply | no (0)

Ask | # lookup: test call for `O=[N+]([O-])c1ccc(C=Cc2ccc([N+](=O)[O-])cc2S(=O)(=O)O)c(S(=O)(=O)O)c1`
Reply | no (0)

Ask | Assay result, entry `c1ccc(CCCc2ccccn2)cc1` — outcome?
Reply | yes (1)

Ask | Give the logged outcome of this assay for the following compound: `CC(C)(C)c1cc(CCC(=O)NN)cc(C(C)(C)C)c1O`
Reply | no (0)

Ask | Would you mind telling me which call this test gave `O=C(O)c1ccc(C(=O)O)cc1` ?
Reply | no (0)
